Assay: Human HepG2 cell viability assay in 384 well format
Format: toxicity, cell-based
Parameters: dose 125 nL, time 70.5 hour; concentration not given beside the values
Details: HepG2 cells, read-out: Inhibition
Reported cytotoxicity at 70.5 h values follow for various molecules
Field: numeric (%). Do not append units.

# molecule, experimental result
data = [
    ("COCC(=O)N(C)Cc1nc(N(C)C)ncc1-c1ccncc1", -11.3),
    ("Cc1ccn(CCNc2ncnc3c2CCN(c2cnccn2)CC3)n1", 2.31),
    ("CCc1nc(CCn2cc(-c3nccn3C)nn2)no1", -9.68),
    ("COc1cc(C(=O)N2CCCC(c3cc(C)[nH]n3)C2)ccc1C (stereo not drawn)", 19.1),
    ("O=S(=O)(c1ccc(F)cc1)n1cc(Cl)cn1", -10.6),
]

// query Please report the measured cytotoxicity at 70.5 h for COc1ccc2c(c1)s/c(=N\C(=O)CSCC(=O)Nc1nccs1)n2C
// result 16.4

// query Note cytotoxicity at 70.5 h for the molecule shown: Cc1cc(OCC(N)=O)ccc1NC(=O)C(C)Cc1ccccc1F (stereo not drawn)
// result -2.1

// query Using the record for CCN(C)CC(=O)N1CCc2nc(NC)nc(C(=O)N3CCCC3)c2C1 , state its measured cytotoxicity at 70.5 h.
// result 2.56

// query Identify measured cytotoxicity at 70.5 h corresponding to CN(Cc1ccccc1OC(F)(F)F)C(=O)C1CCCN(C(N)=O)C1 (stereo not drawn)
// result -6.37

// query Indicate its recorded cytotoxicity at 70.5 h; the molecule in question is Cc1nnc([C@H]2C[C@@H]3CCN(C(=O)C4CCOCC4)C[C@H]3O2)[nH]1
// result -9.85

// query For the molecule Cc1ccc(C(CNCc2ccncc2)N2CCOCC2)s1 (stereo not drawn) , give its measured cytotoxicity at 70.5 h value.
// result 18.9

// query Identify measured cytotoxicity at 70.5 h corresponding to CC(C)CS(=O)(=O)N1C[C@H]2C[C@H](C(=O)N3CCCC3)[C@@H](C1)O2
// result 0.165

// query Provide only the value of recorded cytotoxicity at 70.5 h for O=C(CSc1ccccn1)N1CCN(CCO)[C@@H]2CS(=O)(=O)C[C@@H]21
// result 2.3

// query State its cytotoxicity at 70.5 h for this molecule: Cc1ccc(-n2nnc(C(=O)NC(C)C)c2C2CC2)cc1
// result -4.09

// query Output measured cytotoxicity at 70.5 h for this item: COc1cc(C(=O)Nc2c(C)noc2C)ccc1C
// result 1.7

// query Return cytotoxicity at 70.5 h for the following molecule: COCCNC(=O)Cn1ccc2cccc(OC)c21
// result 8.67

// query Report cytotoxicity at 70.5 h for COCc1ccc(C(=O)N2CCCN(C(=O)OCC(C)C)CC2)cc1
// result 19

// query // Input: O=C(c1cc(C2CC2)nc2onc(-c3ccccc3)c12)N1CC(O)C1 . Output its cytotoxicity at 70.5 h only.
// result 16.9

// query Output cytotoxicity at 70.5 h of CN1CC2(CCCN(c3cnccn3)C2)OC1=O (stereo not drawn)
// result -9.73

// query Find the measured cytotoxicity at 70.5 h of CCOCC1COCCC12CCN(C(=O)CCOC)CC2 (stereo not drawn) and report it.
// result -17.1

// query Please list cytotoxicity at 70.5 h recorded for the molecule O=C(O)CN1CCC(C(F)(F)F)CC1
// result -2.76

// query Give cytotoxicity at 70.5 h for the following molecule: CN1CCC(N2CC[C@@H]3[C@@H](CCC(=O)N3CCC3=CCCCC3)C2)CC1
// result -1.35

// query Please give measured cytotoxicity at 70.5 h of the following entry: O=C(O)C1(n2ccnc2)CCN(Cc2cc3ccccc3o2)CC1
// result -5.42
